Listing: percentage of EdU-negative of selected sequences
test system: MCF7; assay: percentage of EdU-negative (G0-arrested) nuclei per well, 72 h; higher = more G0 arrest; conditions: protein concentration 0.0357143 µM; reference: sequence is the full UniProt precursor, the tested protein was the secreted form or ectodomain;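 also: secreted proteins added to cultured cells, EdU pulse at the end, nuclei found by Hoechst imaging, EdU status from nuclear versus surrounding ring intensity ratio, PBS as neutral control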
Answers without a unit are incomplete; give the number and then its unit.

**Query** Item under review: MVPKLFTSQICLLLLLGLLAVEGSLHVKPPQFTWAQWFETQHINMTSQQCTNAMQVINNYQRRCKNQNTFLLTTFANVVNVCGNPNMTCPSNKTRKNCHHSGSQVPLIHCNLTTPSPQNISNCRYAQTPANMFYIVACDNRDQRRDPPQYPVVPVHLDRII . Reported percentage of EdU-negative?
**Result** 24.9%

**Query** Item under review: MERLVIRMPFSHLSTYSLVWVMAAVVLCTAQVQVVTQDEREQLYTPASLKCSLQNAQEALIVTWQKKKAVSPENMVTFSENHGVVIQPAYKDKINITQLGLQNSTITFWNITLEDEGCYMCLFNTFGFGKISGTACLTVYVQPIVSLHYKFSEDHLNITCSATARPAPMVFWKVPRSGIENSTVTLSHPNGTTSVTSILHIKDPKNQVGKEVICQVLHLGTVTDFKQTVNKGYWFSVPLLLSIVSLVILLVLISILLYWKRHRNQDRGELSQGVQKMT . Reported percentage of EdU-negative?
**Result** 23.6%

Attribution: the supplement of paper PMC11316812
